target: MDMX (Homo sapiens); assay: Competitive fluorescence polarization assay for MDMX; format: binding; details: Ki (MDMX), competitive FP assay
Sequence (O15151 1-125): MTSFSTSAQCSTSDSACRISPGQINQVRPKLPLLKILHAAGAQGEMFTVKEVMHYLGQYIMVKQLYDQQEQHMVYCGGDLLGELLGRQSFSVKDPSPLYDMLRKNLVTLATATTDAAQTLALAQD
Where a SMILES comes first, the peptide text is derived from it. Bridges are numbered along the chain shown (N, C = ends). [ ]: non-standard residue; d: D form. R8 = C=CCCCCCC[C@@](C)(N)C(=O)O; S5 = C=CCCC[C@](C)(N)C(=O)O
Reported Ki values for a set of compounds

- COMPOUND: "CC(=O)N[C@@H](CC(C)C)C(=O)N[C@H](C(=O)N[C@@H](Cc1ccccc1)C(=O)N[C@]1(C)CCCCCCC=CCCC[C@@](C)(C(=O)N[C@@H](CO)C(=O)N[C@@H](C)C(=O)N[C@@H](C)C(N)=O)NC(=O)[C@H](CC(C)C)NC(=O)[C@H](C)NC(=O)[C@H](C)NC(=O)[C@H](Cc2c[nH]c3ccccc23)NC(=O)[C@H](Cc2c[nH]cn2)NC(=O)[C@H](C)NC1=O)[C@@H](C)O [compound 197] (Ac-LTF[R8]AHWAAL[S5]SAA-NH2; staple 4-11)"
  RESULT_VALUE: "10 to 100 nM"
- COMPOUND: "CC(=O)N[C@@H](CC(C)C)C(=O)N[C@H](C(=O)N[C@@H](Cc1ccccc1)C(=O)N[C@]1(C)CCCCCCC=CCCC[C@@](C)(C(=O)N[C@@H](C)C(=O)N[C@@H](C)C(=O)N[C@@H](C)C(=O)N[C@@H](C)C(=O)N[C@@H](C)C(=O)N[C@H](C)C(=O)O)NC(=O)[C@H](CC(C)C)NC(=O)[C@H](CCC(N)=O)NC(=O)[C@H](C)NC(=O)[C@H](Cc2c[nH]c3ccccc23)NC(=O)[C@H](Cc2ccc(O)cc2)NC(=O)[C@H](CCC(=O)O)NC1=O)[C@@H](C)O (single isomer, unassigned)"
  RESULT_VALUE: "10 to 100 nM"
- COMPOUND: "CC(=O)N[C@@H](CC(C)C)C(=O)N[C@H](C(=O)N[C@@H](Cc1ccccc1)C(=O)N[C@]1(C)CCCCCCC=CCCC[C@@](C)(C(=O)N[C@@H](C)C(=O)N[C@@H](C)C(=O)N[C@@H](C)C(=O)N[C@@H](C)C(=O)N[C@@H](C)C(=O)N[C@H](C)C(N)=O)NC(=O)[C@H](CC(C)C)NC(=O)[C@H](CCC(N)=O)NC(=O)[C@H](C)NC(=O)[C@H](Cc2c[nH]c3ccccc23)NC(=O)[C@H](Cc2ccc(O)cc2)NC(=O)[C@H](CCCNC(=N)N)NC1=O)[C@@H](C)O [compound 598] (Ac-LTF[R8]RYWAQL[S5]AAAAA[dA]-NH2; staple 4-11)"
  RESULT_VALUE: "10 to 100 nM"

Below: the item to evaluate.
Query: Name the recorded Ki of the item CC(=O)N[C@@H](CCC(=O)O)C(=O)N[C@H](C(=O)N[C@@H](Cc1ccccc1)C(=O)N[C@]1(C)CCCCCCC=CCCC[C@@](C)(C(=O)N[C@@H](C)C(=O)N[C@@H](C)C(=O)N[C@@H](C)C(=O)N[C@@H](C)C(=O)N[C@@H](C)C(=O)N[C@H](C)C(N)=O)NC(=O)[C@H](CC(C)C)NC(=O)[C@H](CCC(N)=O)NC(=O)[C@H](C)NC(=O)[C@H](Cc2c[nH]c3ccccc23)NC(=O)[C@H](Cc2ccc(O)cc2)NC(=O)[C@H](CCC(=O)O)NC1=O)[C@@H](C)O (single isomer, unassigned) in your answer.
Result: < 10 nM
